# protocolDetails: 4-h oral plasma pharmacokinetics and tissue distribution, male wild-type and Oatp1a/1b−/− mice
# Type: in vivo
# recordedConditions: male, FVB, mouse, liver, po, 10 mg/kg, Table S2, male Oatp1a/1b−/− mice, 10 mg/kg oral, read-out: Cliver
# Source text: Mice with similar average ages (and body weights) were randomly allocated in experimental groups as far as possible. […] Given the objective main readout (repotrectinib plasma and tissue concentrations as measured by LC-MS/MS), no blinding method was applied. […] A sensitive and specific liquid chromatography-tandem mass spectrometry method using protein precipitation pre-treatment was adopted to quantify the concentration of repotrectinib in DMEM medium, plasma samples and tissue homogenates. […]

{"columns": ["smilesRecord", "concentration at 4 h"],
 "data": [
  ["C[C@H]1CNC(=O)c2cnn3ccc(nc23)N[C@H](C)c2cc(F)ccc2O1", "6240 ng/g"]
]}

meta.source: paper PMC8619046
